# SYSTEM NAME: Bovine lens aldose reductase (Bos taurus)
# Construct: Bovine lens aldose reductase was separated and partially purified; from tissue; host or cells: bovine lens
# TEST NAME: Inhibition of Aldose reductase
# Format: biochemical
READOUT KIND: IC50 (nM)
Numbers only, in nM.

Which IC50 is reported for this compound? Cn1c(COc2ccc(CC3SC(=O)NC3=O)cc2)nc2ccccc21 (stereo not shown)
2100
